Target: T1, Goat anti-Human Kappa
T1 construct: Positive control; also called biotinylated goat anti-human kappa light chain
Assay: ELISA; positive control; further: test concentration or dose not given here
MEASURED_PROPERTY: optical density (OD)
Kindly provide the numeric value in OD only, without the unit symbol.

Asked: Entry 376_G05 (antibody, V domains shown, VH/VL only) VH: EVQLLESGGGLVQPGGSLRLSCAASGFTFSSYSMNWVRQAPGKGLEWVAGINYNGGYTSYADSVKGRFTISRDNSKNTLYLQMNSLRAEDTAVYYCARGANWHDTALDYWGQGTLVTVSS VL: DIQMTQSPSSLSASVGDRVTITCRASQSIISYVNWYQQKPGKAPKLVIYAATSRASGVPSRFSGSGSGTDFTLTISSLQPEDFATYYCQQSYESPLTFGGGTKVEIK has what optical density?
Given back: 3.49

Asked: Field entry: 365_F06 (antibody, V domains shown, VH/VL only) VH: EVQLLESGGGLVQPGGSLRLSCAASGFTFSSYGMNWVRQAPGKGLEWVAGINYNSGYKSYADSVKGRFTISRDNSKNTLYLQMNSLRAEDTAVYYCARSANWHDTALDYWGQGTLVTVSS VL: DIQMTQSPSSLSASVGDRVTITCRASQSILSYVNWYQQKPGKAPKLLIYAATSRASGVPSRFSGSGSGTDFTLTISSLQPEDFATYYCQQSDNLPLTFGGGTKVEIK
Given back: 3.4

Asked: Field entry: 365_H03 (antibody, V domains shown, VH/VL only) VH: EVQLLESGGGLVQPGGSLRLSCAASGFTFDDYGMNWVRQAPGKGLEWVAGINYNGGYKSYADSVKGRFTISRDNSKNTLYLQMNSLRAEDTAVYYCARSANWHDTALDYWGQGTLVTVSS VL: DIQMTQSPSSLSASVGDRVTITCRASQSILSYVNWYQQKPGKAPKLVIYAATSLHSGVPSRFSGSGSGTDFTLTISSLQPEDFATYYCQQSYNNPLTFGGGTKVEIK
Given back: 3.27

Asked: Field entry: 366_H07 (antibody, V domains shown, VH/VL only) VH: EVQLLESGGGLVQPGGSLRLSCAASGFTFSSYGMHWVRQAPGKGLEWVSGINYNGGYTSYADSVKGRFTISRDNSKNTLYLQMNSLRAEDTAVYYCARSANWHDTALDYWGQGTLVTVSS VL: DIQMTQSPSSLSASVGDRVTITCRASQSIISYVNWYQQKPGKAPKLVIYAVTSRASGVPSRFSGSGSGTDFTLTISSLQPEDFATYYCQQSYENPLTFGGGTKVEIK
Given back: 3.6

Asked: Field entry: 371_C06 (antibody, V domains shown, VH/VL only) VH: EVQLLESGGGLVQPGGSLRLSCAASGFTFSSYSMNWVRQAPGKGLEWVSSINYNGGYTSYADSVKGRFTISRDNSKNTLYLQMNSLRAEDTAVYYCARGATWHDTHLDYWGQGTLVTVSS VL: DIQMTQSPSSLSASVGDRVTITCRASQSISSYLNWYQQKPGKAPKLLIYAVTSRASGVPSRFSGSGSGTDFTLTISSLQPEDFATYYCQQSYDLPLTFGGGTKVEIK
Given back: 3.44

Asked: Field entry: 365_B06 (antibody, V domains shown, VH/VL only) VH: EVQLLESGGGLVQPGGSLRLSCAASGFTFDSYGMHWVRQAPGKGLEWVSNINYNGGYKSYADSVKGRFTISRDNSKNTLYLQMNSLRAEDTAVYYCARSANWHDTALDYWGQGTLVTVSS VL: DIQMTQSPSSLSASVGDRVTITCRASQSILTYVNWYQQKPGKAPKLLIYATTSLASGVPSRFSGSGSGTDFTLTISSLQPEDFATYYCQQSYDLPLTFGGGTKVEIK
Given back: 3.28

Asked: Field entry: 366_H09 (antibody, V domains shown, VH/VL only) VH: EVQLLESGGGLVQPGGSLRLSCAASGFTFDSYGMNWVRQAPGKGLEWVSNINYNSGYKGYADSVKGRFTISRDNSKNTLYLQMNSLRAEDTAVYYCARSANWHDTALDYWGQGTLVTVSS VL: DIQMTQSPSSLSASVGDRVTITCRASQSIVSYVNWYQQKPGKAPKLVIYATTSRASGVPSRFSGSGSGTDFTLTISSLQPEDFATYYCQQSYSSPLTFGGGTKVEIK
Given back: 3.42

Asked: Field entry: 365_D10 (antibody, V domains shown, VH/VL only) VH: EVQLLESGGGLVQPGGSLRLSCAASGFTFSSYSMNWVRQAPGKGLEWVAGINYNGGYTGYADSVKGRFTISRDNSKNTLYLQMNSLRAEDTAVYYCARGATWHDTHLDYWGQGTLVTVSS VL: DIQMTQSPSSLSASVGDRVTITCRASQSISTYLNWYQQKPGKAPKLLIYAATSRASGVPSRFSGSGSGTDFTLTISSLQPEDFATYYCQQSYESPLTFGGGTKVEIK
Given back: 3.27

Asked: Field entry: 366_A07 (antibody, V domains shown, VH/VL only) VH: EVQLLESGGGLVQPGGSLRLSCAASGFTFSSYGMHWVRQAPGKGLEWVASINYNGGYTGYADSVKGRFTISRDNSKNTLYLQMNSLRAEDTAVYYCARSANWHDTALDYWGQGTLVTVSS VL: DIQMTQSPSSLSASVGDRVTITCRASQSIVSYVNWYQQKPGKAPKLVIYAATSRHSGVPSRFSGSGSGTDFTLTISSLQPEDFATYYCQQSYESPLTFGGGTKVEIK
Given back: 3.37

Asked: Field entry: 365_D02 (antibody, V domains shown, VH/VL only) VH: EVQLLESGGGLVQPGGSLRLSCAASGFTFSSYSMHWVRQAPGKGLEWVASINYNGGYTSYADSVKGRFTISRDNSKNTLYLQMNSLRAEDTAVYYCARGATWHDTHLDYWGQGTLVTVSS VL: DIQMTQSPSSLSASVGDRVTITCRASQSIVTYLNWYQQKPGKAPKLLIYAATSLASGVPSRFSGSGSGTDFTLTISSLQPEDFATYYCQQSYDNPLTFGGGTKVEIK
Given back: 3.52
